system: Somatostatin receptor 2 (SSTR2) (human), P30874
Sequence (P30874 whole entry): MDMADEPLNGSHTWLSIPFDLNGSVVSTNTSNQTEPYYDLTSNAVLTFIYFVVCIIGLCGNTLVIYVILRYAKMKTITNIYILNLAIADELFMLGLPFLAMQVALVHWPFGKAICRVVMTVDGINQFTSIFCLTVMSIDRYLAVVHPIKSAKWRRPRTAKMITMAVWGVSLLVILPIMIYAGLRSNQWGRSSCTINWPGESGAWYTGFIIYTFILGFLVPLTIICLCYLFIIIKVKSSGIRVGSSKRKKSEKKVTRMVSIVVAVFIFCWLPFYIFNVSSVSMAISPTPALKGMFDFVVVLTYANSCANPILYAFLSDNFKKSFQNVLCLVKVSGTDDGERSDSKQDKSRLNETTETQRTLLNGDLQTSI
condition label: octanoyl moiety at the N-terminus (N-octanoyl amide); L-mesityl alanine (Msa) at position 5; D-Trp at position 7; disulfide bridge between the two cysteines
pIC50: −log10 of the molar value.

{"binder": "PCKNFFWKTFTSCK [Cortistatin analogue 5]", "pIC50": 7.46}
